# Lookup of reported Ratio of PDL1:CD28 keyed by entry
- studySystem: huPD-L1 (Homo sapiens, UniProt Q9NZQ7)
- Sequence (Q9NZQ7 19-290): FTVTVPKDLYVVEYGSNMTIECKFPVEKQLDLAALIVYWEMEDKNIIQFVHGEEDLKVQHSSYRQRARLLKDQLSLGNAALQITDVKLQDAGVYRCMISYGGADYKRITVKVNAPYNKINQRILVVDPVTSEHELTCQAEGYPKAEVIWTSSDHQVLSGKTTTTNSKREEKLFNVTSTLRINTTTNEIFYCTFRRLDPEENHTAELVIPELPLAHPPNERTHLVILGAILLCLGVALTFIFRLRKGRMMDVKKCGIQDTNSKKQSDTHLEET
- assayMethodText: Flow binding to CHO cells stably expressing PD-L1
- Design: huCTLA4 and huPD-L1, full-length mammalian surface expression constructs were generated; expressed in transfected cells; host or cells: CHO cells, lentiviral transduction, sorted to >98% purity
- measurementSetup: Table E23; ratio of MFI at 33.3 nM

Examples with their reported Ratio of PDL1:CD28 follow.
H18C/A26P/E35D/M47L/V68M/A71G (protein, UniProt P33681 35-288, looked up, variant H18C A26P E35D M47L V68M A71G) T-lymphocyte activation …: VIHVTKEVKEVATLSCGCNVSVEELPQTRIYWQKDKKMVLTMMSGDLNIWPEYKNRTIFDITNNLSIMILGLRPSDEGTYECVVLKYEKDAFKREHLAEVTLSVKADFPTPSISDFEIPTSNIRRIICSTSGGFPEPHLSWLENGEELNAINTTVSQDPETELYAVSSKLDFNMTTNHSFMCLIKYGHLRVNQTFNWNTTKQEHFPDNLLPSWAITLISVNGIFVICCLTYCFAPRCRERRRNERLRRESVRPV | 35.2
H18L/A26N/D46E/V68M/A71G/D90G (protein, UniProt P33681 35-288, looked up, variant H18L A26N D46E V68M A71G D90G) T-lymphocyte activation …: VIHVTKEVKEVATLSCGLNVSVEELNQTRIYWQKEKKMVLTMMSGEMNIWPEYKNRTIFDITNNLSIMILGLRPSDEGTYECVVLKYEKGAFKREHLAEVTLSVKADFPTPSISDFEIPTSNIRRIICSTSGGFPEPHLSWLENGEELNAINTTVSQDPETELYAVSSKLDFNMTTNHSFMCLIKYGHLRVNQTFNWNTTKQEHFPDNLLPSWAITLISVNGIFVICCLTYCFAPRCRERRRNERLRRESVRPV | 9.4

Next molecule, please.
Task: Value lookup for Ratio of PDL1:CD28; key = H18F/A26N/E35D/M47V/V68M/A71G/D90K (protein, UniProt P33681 35-288, looked up, variant H18F A26N E35D M47V V68M A71G D90K) T-lymphocyte activation …: VIHVTKEVKEVATLSCGFNVSVEELNQTRIYWQKDKKMVLTMMSGDVNIWPEYKNRTIFDITNNLSIMILGLRPSDEGTYECVVLKYEKKAFKREHLAEVTLSVKADFPTPSISDFEIPTSNIRRIICSTSGGFPEPHLSWLENGEELNAINTTVSQDPETELYAVSSKLDFNMTTNHSFMCLIKYGHLRVNQTFNWNTTKQEHFPDNLLPSWAITLISVNGIFVICCLTYCFAPRCRERRRNERLRRESVRPV
Result: 7.1

Reference source for all entries: patent US20220177587A1
